For each of the compounds below, state its TGI.
Test system: COLO 205 colon
assay summary: NCI tumour cell line growth inhibition, 48 h
One number for each entry, in µM.

Previously resolved entries follow.
[
  {
    "compound": "O=[N+]([O-])C(Cl)=C/C(=C(\\Cl)SCc1ccccc1)[N+](=O)[O-]",
    "assay system": "COLO 205 colon",
    "TGI (µM)": 32.3
  },
  {
    "compound": "CCN(CC)C(=S)[S][Bi]([S]C(=S)N(CC)CC)[S]C(=S)N(CC)CC",
    "assay system": "COLO 205 colon",
    "TGI (µM)": 0.131
  },
  {
    "compound": "COC(=O)C(C)NC(=O)c1ccccc1I(OS(=O)(=O)C(F)(F)F)c1ccccc1 (centres undefined)",
    "assay system": "COLO 205 colon",
    "TGI (µM)": 45.9
  },
  {
    "compound": "COc1cc(-c2csc(NC(=O)Nc3cc(Cl)cc(Cl)c3)n2)cc(OC)c1OC",
    "assay system": "COLO 205 colon",
    "TGI (µM)": 11.4
  },
  {
    "compound": "CCOC(=O)/C=C(\\C(=O)OCC)n1ccc(=O)[nH]c1=O",
    "assay system": "COLO 205 colon",
    "TGI (µM)": 8.24
  },
  {
    "compound": "O=C1C(Cl)=C(Nc2cccc(O)c2)C(=O)N1Cc1ccc(Cl)cc1Cl",
    "assay system": "COLO 205 colon",
    "TGI (µM)": 30.2
  },
  {
    "compound": "CC#Cc1nc(Nc2cc(C)[nH]n2)c2ccccc2n1",
    "assay system": "COLO 205 colon",
    "TGI (µM)": 10.3
  },
  {
    "compound": "c1ccc(CN2CCN3CCN(CC2)CCN(Cc2ccccc2)CC3)cc1",
    "assay system": "COLO 205 colon",
    "TGI (µM)": 5.06
  }
]

Please turn your attention to the following entry.
Let me know recorded TGI for "Cc1cn(S(=O)(=O)c2ccccc2)c2c(OCc3ccccc3)cc(NS(C)(=O)=O)cc12" , thanks.
77.2
